The measured values listed here are drawn from paper PMC5585240.

PROCEDURE_TEXT: Cytotoxicity under the same conditions as the NF-κB assay
Type: cell-based
DETAILS: human
Record form. Attribute: IC50 at 6 h. Fill in for each entry.

The cases that follow already have their IC50 at 6 h on record.
CCCCC[C@@H]1OC2=C(C(=O)N(OC)[C@@H]2C[S@+]([O-])C[C@@H](O)C(=O)O)[C@H](O)[C@@]1(C)O [Compound 3, Paraphaeosphaeride G]
> 50 µM
CCCCC[C@@H]1OC2=C(C(=O)N(OC)[C@@H]2CSC[C@@H](O)C(=O)O)[C@@H](O)[C@@]1(C)O [Compound 2, Paraphaeosphaeride F]
> 50 µM

Turning now to a further record.
Reported IC50 at 6 h ( CCCCC[C@@H]1OC2=C(C(=O)N(OC)[C@@H]2CSC[C@@H](O)C(=O)O)[C@H](O)[C@@]1(C)O [Compound 1, Paraphaeosphaeride E] ) = > 50 µM

----------
System: NF-κB
PROCEDURE_TEXT: TNF-α-induced NF-κB luciferase reporter assay in human embryonic kidney cells 293
Format: cell-based
DETAILS: TNF-α (2 ng/mL) induced NF-κB activity, 293 cells, 6 h, read-out: NF-κB inhibition IC50
PROPERTY_NAME: IC50 (µM)
Numbers only, in µM.

Consider Cc1ccc(S(=O)(=O)N[C@@H](Cc2ccccc2)C(=O)CCl)cc1 [TPCK, reference compound] . Its measured IC50 is 4.09

----------
PROCEDURE_TEXT: Cytotoxicity in the iNOS assay
Format: cell-based
DETAILS: mouse, RAW 264.7 cells
PROPERTY_NAME: IC50 at 20 h

Completed entries (count: 2):
CCCCC[C@@H]1OC2=C(C(=O)N(OC)[C@@H]2CSC[C@@H](O)C(=O)O)[C@H](O)[C@@]1(C)O [Compound 1, Paraphaeosphaeride E]
> 50 µM
CCCCC[C@@H]1OC2=C(C(=O)N(OC)[C@@H]2C[S@+]([O-])C[C@@H](O)C(=O)O)[C@H](O)[C@@]1(C)O [Compound 3, Paraphaeosphaeride G]
> 50 µM

Kindly consider the entry below.
What the record says about CCCCC[C@@H]1OC2=C(C(=O)N(OC)[C@@H]2CSC[C@@H](O)C(=O)O)[C@@H](O)[C@@]1(C)O [Compound 2, Paraphaeosphaeride F] : IC50 at 20 h is > 50 µM
